assay: Cytotoxicity Determination (CCK-8, without addition of virus); format: cell-based; conditions: human, 50% cytotoxicity concentration (CC50)
Measured CC50 at 5 days accompanies every entry in the list below.

Consider the reported CC50 at 5 days for these compounds:
Incoming: Look at this compound and give its reported CC50 at 5 days. COc1cc(C(=O)NCC(O)(c2cc(C(C)(C)NC(C)C)cc(-c3ccc(F)c(Cl)c3)n2)C(F)(F)F)ccc1OC1CC1 (centres unmarked)
Outgoing: 10 to 100 µM

Incoming: Look at this compound and give its reported CC50 at 5 days. COc1cc(C(=O)NCC(O)(c2ccc(OC)c(-c3ccc(F)c(Cl)c3)n2)C(F)(F)F)ccc1OCC(N)=O (single isomer, unassigned) [Compound 238]
Outgoing: 10 to 100 µM

Incoming: Look at this compound and give its reported CC50 at 5 days. COc1cc(C(=O)NCC(O)(c2cc(C(C)(C)NC(C)=N)cc(-c3ccc(F)c(Cl)c3)n2)C(F)(F)F)ccc1OC1CC1 (centres unmarked)
Outgoing: 10 to 100 µM

Incoming: Look at this compound and give its reported CC50 at 5 days. COc1ccc(C(O)(CNC(=O)c2ccc(OC3CC3)c(Cl)c2)C(F)(F)F)nc1-c1ccc(F)c(Cl)c1 (centres unmarked)
Outgoing: 10 to 100 µM

Incoming: Look at this compound and give its reported CC50 at 5 days. CC(C)(N)c1cc(-c2ccc(F)c(Cl)c2)nc(C(O)(CNC(=O)c2cn3cccnc3n2)C(F)(F)F)c1 (centres unmarked)
Outgoing: 10 to 100 µM

Further cases:
Incoming: Look at this compound and give its reported CC50 at 5 days. COc1cc(C(=O)NC[C@@](O)(c2cc(C(C)(C)N)cc(-c3ccc(F)cc3)n2)C(F)(F)F)ccc1OCC(N)=O
Outgoing: > 100 µM

Incoming: Look at this compound and give its reported CC50 at 5 days. COc1cc(C(=O)NCC(C)(F)c2ccc(OC)c(-c3ccc(F)c(Cl)c3)n2)ccc1OCCO (centres unmarked)
Outgoing: 10 to 100 µM

Incoming: Look at this compound and give its reported CC50 at 5 days. COc1cc(C(=O)NCC(O)(c2cc(C(C)(C)N)cc(-c3ccc(C#N)cc3)n2)C(F)(F)F)ccc1OCCO (centres unmarked) [Compound 623b]
Outgoing: > 100 µM

Incoming: Look at this compound and give its reported CC50 at 5 days. COc1cc(C(=O)NCC(O)(c2cc(C(C)(C)N)cc(-c3ccc(F)cc3)n2)C(F)(F)F)ccc1OC1CC(O)C1 (centres unmarked)
Outgoing: 10 to 100 µM

Incoming: Look at this compound and give its reported CC50 at 5 days. COc1cc(C(=O)NCC(O)(CO)c2cc3c(c(-c4ccc(F)c(Cl)c4)n2)OCC3(C)C)ccc1OC1CCNC1=O (centres unmarked)
Outgoing: 10 to 100 µM
